Target: T1, human LAG-3 on cells (HEK293-hLAG-3 stable cell line) (human, UniProt P18627 23-525)
T1 sequence: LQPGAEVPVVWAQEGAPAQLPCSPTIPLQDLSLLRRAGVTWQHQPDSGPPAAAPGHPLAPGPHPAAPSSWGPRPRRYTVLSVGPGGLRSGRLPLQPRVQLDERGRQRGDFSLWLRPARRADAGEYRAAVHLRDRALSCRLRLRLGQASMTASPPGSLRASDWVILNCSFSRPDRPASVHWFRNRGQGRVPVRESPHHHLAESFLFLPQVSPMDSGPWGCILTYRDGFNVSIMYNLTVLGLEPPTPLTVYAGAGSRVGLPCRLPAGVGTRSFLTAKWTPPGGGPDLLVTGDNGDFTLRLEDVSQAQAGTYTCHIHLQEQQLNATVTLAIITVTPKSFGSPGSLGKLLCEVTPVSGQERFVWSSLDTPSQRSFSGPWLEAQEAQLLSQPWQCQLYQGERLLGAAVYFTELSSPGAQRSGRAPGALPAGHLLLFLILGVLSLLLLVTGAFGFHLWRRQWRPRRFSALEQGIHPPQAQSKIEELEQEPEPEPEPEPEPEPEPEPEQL
Assay: cell-based or functional assay
PROPERTY: IL-2 production, antigen-specific T lymphocyte stimulation test, 0.08 ug/ml, N = 2 (pg/mL)
The reply should be a number in pg/mL, with the unit left off.

# annotated cases, reported IL-2 production, antigen-specific T lymphocyte stimulation test, 0.08 ug/ml, N = 2 shown
BINDER: 556F6B8 mouse-human chimeric antibody (antibody, V domains shown, also called mAb123-556F6B8; 556F8B8) VH: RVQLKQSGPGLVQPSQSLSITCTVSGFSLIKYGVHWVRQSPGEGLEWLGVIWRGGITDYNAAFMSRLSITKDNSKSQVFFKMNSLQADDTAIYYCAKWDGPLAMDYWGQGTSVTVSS VL: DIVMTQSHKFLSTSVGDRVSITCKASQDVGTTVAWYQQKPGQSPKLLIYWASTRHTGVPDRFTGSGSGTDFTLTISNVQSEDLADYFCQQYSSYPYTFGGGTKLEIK
ASSAY VALUE: 491
--
BINDER: 405B8H3 mouse-human chimeric antibody (antibody, V domains shown, also called mAb103-405B8H3) VH: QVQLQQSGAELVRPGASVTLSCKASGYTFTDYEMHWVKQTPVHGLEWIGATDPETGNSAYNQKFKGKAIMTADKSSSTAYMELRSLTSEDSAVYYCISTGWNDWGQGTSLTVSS VL: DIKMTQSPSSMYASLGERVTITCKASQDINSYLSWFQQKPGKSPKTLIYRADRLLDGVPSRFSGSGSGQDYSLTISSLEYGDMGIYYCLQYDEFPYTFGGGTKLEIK
ASSAY VALUE: 559
--
BINDER: 105F1E10 mouse-human chimeric antibody (antibody, V domains shown, also called mAb009-105F1E10) VH: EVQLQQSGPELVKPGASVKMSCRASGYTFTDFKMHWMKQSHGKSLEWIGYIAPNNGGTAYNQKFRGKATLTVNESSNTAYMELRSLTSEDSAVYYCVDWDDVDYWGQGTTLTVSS VL: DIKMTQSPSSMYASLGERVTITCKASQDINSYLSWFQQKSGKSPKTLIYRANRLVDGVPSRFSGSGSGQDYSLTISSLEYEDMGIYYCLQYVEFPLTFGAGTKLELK
ASSAY VALUE: 467

Now, please, on to the next binder.
Would you kindly share the measured IL-2 production, antigen-specific T lymphocyte stimulation test, 0.08 ug/ml, N = 2 for 409D4E10 mouse-human chimeric antibody (antibody, V domains shown, also called mAb112-409D4E10) VH: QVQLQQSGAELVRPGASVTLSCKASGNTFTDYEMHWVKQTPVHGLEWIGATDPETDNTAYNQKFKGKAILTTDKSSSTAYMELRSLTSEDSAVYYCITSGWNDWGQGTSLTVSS VL: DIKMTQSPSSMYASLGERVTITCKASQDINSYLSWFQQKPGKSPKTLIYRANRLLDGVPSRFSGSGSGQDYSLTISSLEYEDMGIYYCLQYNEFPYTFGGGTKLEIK ?
534
